- Test system: Streptococcus pyogenes
- assayName: Antimicrobial activity against Streptococcus pyogenes ATCC 112344 by NCCLS method
- Type: functional
A collection of compounds and their measured MIC

compound: C=C[C@]1(C)C[C@@H](OC(=O)CN2CCN(C(=O)CCn3cnc4c(N5CC[C@@H](N)C5)ncnc43)[C@@H](C)C2)[C@]2(C)[C@H](C)CC[C@]3(CCC(=O)[C@@H]32)[C@@H](C)[C@@H]1O.Cl.Cl
MIC: 0.016 µg/mL

compound: C=C[C@]1(C)C[C@@H](OC(=O)CN2CC(C)N(C(=O)CCn3cnc4c(N5CCC(N)C5)ncnc43)CC2C)[C@]2(C)[C@H](C)CC[C@]3(CCC(=O)[C@@H]32)[C@@H](C)[C@@H]1O.Cl.Cl (stereo not given in full)
MIC: 0.032 µg/mL

compound: C=C[C@]1(C)C[C@@H](OC(=O)CN2CCN(C(=O)CCn3cnc4c(N5CCC(N)C5)ncnc43)C(CC)C2)[C@]2(C)[C@H](C)CC[C@]3(CCC(=O)[C@@H]32)[C@@H](C)[C@@H]1O.Cl.Cl (stereo not given in full)
MIC: 0.032 µg/mL

compound: C=C[C@]1(C)C[C@@H](OC(=O)CN2CCN(C(=O)CCn3cnc4c(N5CCC(N)CC5)ncnc43)[C@@H](C)C2)[C@]2(C)[C@H](C)CC[C@]3(CCC(=O)[C@@H]32)[C@@H](C)[C@@H]1O.Cl.Cl
MIC: 0.032 µg/mL

compound: C=C[C@]1(C)C[C@@H](OC(=O)CN2CCN(C(=O)CCn3cnc4c(N5CCC(N)C5)ncnc43)[C@@H](C)C2)[C@]2(C)[C@H](C)CC[C@]3(CCC(=O)[C@@H]32)[C@@H](C)[C@@H]1O.Cl.Cl (stereo not given in full)
MIC: 0.032 µg/mL
